Target: α4β7 integrin interaction with MadCAM-1 (RPMI8866 cells) (Homo sapiens, UniProt P13612+P26010)
Construct: α4β7 integrin expressing cells; endogenous in cells
Sequence (P13612 34-1032): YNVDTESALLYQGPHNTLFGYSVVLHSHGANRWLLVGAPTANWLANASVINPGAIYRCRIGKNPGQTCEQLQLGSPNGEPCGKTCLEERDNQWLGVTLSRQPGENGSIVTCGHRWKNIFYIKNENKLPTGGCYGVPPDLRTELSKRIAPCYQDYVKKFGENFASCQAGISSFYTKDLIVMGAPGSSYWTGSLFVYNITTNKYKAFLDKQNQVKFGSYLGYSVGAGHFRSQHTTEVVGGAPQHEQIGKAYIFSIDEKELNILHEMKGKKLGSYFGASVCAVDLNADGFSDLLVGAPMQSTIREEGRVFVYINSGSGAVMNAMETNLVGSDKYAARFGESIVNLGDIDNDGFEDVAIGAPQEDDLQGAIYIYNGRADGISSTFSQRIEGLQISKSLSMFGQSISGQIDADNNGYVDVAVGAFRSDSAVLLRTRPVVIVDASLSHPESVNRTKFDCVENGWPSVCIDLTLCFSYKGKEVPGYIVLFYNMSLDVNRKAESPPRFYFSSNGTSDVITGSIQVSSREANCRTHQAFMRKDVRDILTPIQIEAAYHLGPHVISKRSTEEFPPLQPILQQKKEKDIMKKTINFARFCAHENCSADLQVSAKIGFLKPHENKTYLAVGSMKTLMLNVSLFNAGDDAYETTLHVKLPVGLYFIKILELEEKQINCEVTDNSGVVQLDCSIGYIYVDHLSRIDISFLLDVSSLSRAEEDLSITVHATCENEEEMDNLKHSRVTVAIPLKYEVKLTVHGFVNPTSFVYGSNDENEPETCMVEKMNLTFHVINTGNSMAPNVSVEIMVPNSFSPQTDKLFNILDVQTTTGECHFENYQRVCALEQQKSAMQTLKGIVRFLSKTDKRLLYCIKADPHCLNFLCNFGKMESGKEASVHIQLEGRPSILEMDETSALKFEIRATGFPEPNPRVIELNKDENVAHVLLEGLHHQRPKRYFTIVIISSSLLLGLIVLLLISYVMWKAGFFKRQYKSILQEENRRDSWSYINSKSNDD
Sequence (P26010 20-798): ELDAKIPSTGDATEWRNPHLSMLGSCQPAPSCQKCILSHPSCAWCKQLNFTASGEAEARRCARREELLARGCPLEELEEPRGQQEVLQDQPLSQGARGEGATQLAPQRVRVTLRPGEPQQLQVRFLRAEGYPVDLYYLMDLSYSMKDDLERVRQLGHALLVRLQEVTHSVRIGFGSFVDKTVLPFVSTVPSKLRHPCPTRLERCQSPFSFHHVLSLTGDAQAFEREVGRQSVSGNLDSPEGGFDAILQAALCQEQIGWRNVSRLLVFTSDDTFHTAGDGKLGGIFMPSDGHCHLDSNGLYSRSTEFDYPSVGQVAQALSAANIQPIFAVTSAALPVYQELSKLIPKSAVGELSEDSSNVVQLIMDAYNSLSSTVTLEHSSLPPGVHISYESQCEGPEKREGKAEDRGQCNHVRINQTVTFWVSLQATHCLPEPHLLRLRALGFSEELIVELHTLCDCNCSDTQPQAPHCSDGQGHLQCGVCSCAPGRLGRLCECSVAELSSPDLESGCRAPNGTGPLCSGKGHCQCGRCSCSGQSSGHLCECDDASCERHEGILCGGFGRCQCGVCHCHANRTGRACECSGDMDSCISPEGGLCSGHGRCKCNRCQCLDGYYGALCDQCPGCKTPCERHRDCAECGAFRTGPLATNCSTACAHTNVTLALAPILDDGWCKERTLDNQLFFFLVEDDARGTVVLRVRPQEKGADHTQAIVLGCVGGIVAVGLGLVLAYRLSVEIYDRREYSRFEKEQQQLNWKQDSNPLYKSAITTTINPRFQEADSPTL
Test: α4β7 Integrin Cell Capture Assay
Conditions: capture of α4β7 integrin expressing RPMI8866 cells on recombinant MadCAM-1 extracellular domain-coated plate; 0.5 mM MnCl2
pEC50: −log10 of the molar value.
Label yes (1) when pEC50 is at or above 9; otherwise label no (0).

Could you tell me if the measured pEC50 of O=C(N[C@@H](Cc1ccc(-c2c(Cl)cc(F)cc2Cl)c2c1OCCO2)C(=O)O)c1c(F)cccc1F reaches 9 or more?
no (0)

Also check Cc1cc(N2CCOC[C@@H]2C(F)(F)F)cc(F)c1C(=O)N[C@@H](Cc1ccc(-c2c(C)c(C(F)(F)F)cn(C)c2=O)c2c1CCCO2)C(=O)O
yes (1)

// same read-out, input: Cc1cc(C(F)(F)F)c(-c2ccc(C[C@H](NC(=O)c3c(F)cc(N4CCOC[C@@H]4C(F)(F)F)cc3F)C(=O)O)c3c2CCC3)c(=O)n1C
yes (1)

And then Cc1nc(C)n(C)c(=O)c1-c1ccc(C[C@H](NC(=O)c2c(F)cc(N3CCOC[C@@H]3C(F)(F)F)cc2F)C(=O)O)c2c1OCCC2 (atropisomer, axis not shown) [Example 117] , what is it?
yes (1)

Try the compound O=C(N[C@@H](Cc1ccc(-c2c(Cl)cc(F)cc2Cl)c2c1C1CC1CO2)C(=O)O)c1c(Cl)cccc1Cl (some centres unmarked)
no (0)

This collection of values is drawn from patent US20220226337A1.
